# Tested on: U251 CNS
# method: NCI tumour cell line growth inhibition, 48 h
observation-type: TGI (µM)
Numbers only; they are read as µM.

line-notation	endpoint-value
O=S(=O)(Nc1cc(Sc2cccc3cccnc23)c(O)c2ccccc12)c1ccc(F)cc1	10.4

Turning to the following compound.
Task: Short answer please: TGI, U251 CNS, entry "Cc1cc(S(=O)(=O)Nc2nc3ccccc3nc2-c2cccc([N+](=O)[O-])c2)c(S)cc1Cl"
Result: 38.6

###

# Test system: HOP-92 NSCLC
# method: NCI tumour cell line growth inhibition, 48 h; in the data active means GI50 below about 0.43 µM; inactive means the rest
Choose the fitting class; nothing outside 1.0 for active, 0.0 for inactive is accepted.

Example cases with answers are listed next.
compound	group-label
CCOc1ccccc1C(=O)N1CCN(c2cc(Cl)cc(Cl)c2)CC1	1.0
CN1C(=O)N(C)C2C1NN=c1s/c(=C\c3ccc(C(F)(F)F)cc3)c(=O)n12 (configuration not stated)	0.0
O=S(=O)(Nc1cc(Sc2cccc3cccnc23)c(O)c2ccccc12)c1ccc(F)cc1	0.0
N#CC1(C(N)=O)C(c2ccc(Cl)cc2)CC(=O)CC1c1ccc(Cl)cc1 (configuration not stated)	0.0
CC(C)C[C@H](NC(=O)CNC(=O)c1cc(Cl)ccc1Cl)B1OC(=O)CC(CC(=O)O)(C(=O)O)O1 (some centres not stated)	1.0
CCCCCCCCCCCCCCCCCC[n+]1ccc2c(C)c3c(c(C)c2c1)c1cc(O)ccc1n3CC	0.0

Kindly review the next compound as well.
Task: Hi, sorry to bother you, what did the test record for O=C1OCC2=C1C(c1ccccc1)c1cc3c(cc1N2)OCO3 (configuration not stated) ?
Result: 1.0

###

Recorded TGI for the following compounds
# Test system: SK-MEL-5 melanoma
# method: NCI tumour cell line growth inhibition, 48 h
Numbers only; they are read as µM.

compound	endpoint-value
CCOc1ccccc1C(=O)N1CCN(c2cc(Cl)cc(Cl)c2)CC1	0.177
COc1cc(N2C(=O)[C@H](O)C2c2ccc(SC)cc2)cc(OC)c1OC (some centres undefined)	0.0304
CSc1nc2c(c(=O)[nH]1)N=C(c1ccc([N+](=O)[O-])cc1)CC(c1ccccc1)N2 (centres undefined)	55.6
O=S(=O)(c1ccc(Cl)cc1)C(Cl)(Cl)Cl	12.1
CN1CCN(C(=O)c2cc(-c3ccc4ncnc(N5CCc6cc(F)c(Cl)cc65)c4c3)cnc2N)CC1	0.476

Task: Fill in: TGI of "N#Cc1sc2c(c1OC(=O)c1ccccc1)c(=O)n(-c1ccccc1)c(=S)n2-c1ccccc1" is ___
Result: 28.5

Task: Param item: O=C1OCC2=C1C(c1ccccc1)c1cc3c(cc1N2)OCO3 (centres undefined)
Result: 0.234

Task: Param item: OCC1OC(n2cnc3c(N/N=C\c4ccccn4)ncnc32)C(O)C1O (centres undefined)
Result: 2.29

###

# System: MDA-MB-435
observation-type: GI50

Task: Short answer please: GI50, MDA-MB-435, entry "O=S(=O)(c1ccc(Cl)cc1)C(Cl)(Cl)Cl"
Result: 908 nM

Task: Param item: "Fc1ccc(/C=N/n2c(-c3ccc(F)c(Cl)c3)nn(CNc3ccccc3C(F)(F)F)c2=S)cc1"
Result: 43100 nM

Task: Param item: "Cc1ccc(/C=N\NC(=O)c2[nH]c3ccc(F)cc3c2-c2ccccc2)cc1"
Result: 21.7 nM

Task: Param item: OCC1OC(n2cnc3c(N/N=C\c4ccccn4)ncnc32)C(O)C1O (centres undefined)
Result: 430 nM
